Listing of recorded iScore by entry.
molecular target: HLA-A*1101 (human); assay: iTopia net score
// keep it numeric: no unit symbol after the value

Past entries and their recorded results:
Binder	Numeric Result
KEIFSCIKK [cdr2 427-435 KEIFSCIKK]	0.392
SPTTPPEYK [cdr2 415-423 SPTTPPEYK]	0.136
GATGAYRAR [cdr2 238-246 GATGAYRAR]	0.056
LQLAAELGK [cdr2 28-36 LQLAAELGK]	0.194
KQRGISLLH [cdr2 339-347 KQRGISLLH]	0.089
LTKQVELLR [cdr2 66-74 LTKQVELLR]	0.238
PPEYKALFK [cdr2 419-427 PPEYKALFK]	0.058
SLAGSDIVK [cdr2 317-325 SLAGSDIVK]	0.283

Q: So what does the record say about iScore for ADSKASQQK [cdr2 103-111 ADSKASQQK] ?
Result: 0.054

Q: So what does the record say about iScore for RQMNEQHAK [cdr2 74-82 RQMNEQHAK] ?
Result: 0.396
